These entries and their values trace back to patent US11419914B2.

ASSAY COMMENT: clinical
CONDITION CONTEXT: both sexes, human, in vivo, inhaled or intranasal, T1/2

TEST SMILES | half-life
NC(=O)CC[C@@H]1NC(=O)[C@H](Cc2ccccc2)NC(=O)[C@H](Cc2ccc(O)cc2)NC(=O)CCSSC[C@@H](C(=O)N2CCC[C@H]2C(=O)N[C@H](CCCN=C(N)N)C(=O)NCC(N)=O)NC(=O)[C@H](CC(N)=O)NC1=O | 1.13 h
